target: UniProtKB P61169; assay: In vitro inhibition of [3H]spiperone binding to dopamine receptor D2 from rat brain limbic tissue at 1 uM; assay type: tissue-based; conditions: Limbic system
Sequence (P61169 whole entry): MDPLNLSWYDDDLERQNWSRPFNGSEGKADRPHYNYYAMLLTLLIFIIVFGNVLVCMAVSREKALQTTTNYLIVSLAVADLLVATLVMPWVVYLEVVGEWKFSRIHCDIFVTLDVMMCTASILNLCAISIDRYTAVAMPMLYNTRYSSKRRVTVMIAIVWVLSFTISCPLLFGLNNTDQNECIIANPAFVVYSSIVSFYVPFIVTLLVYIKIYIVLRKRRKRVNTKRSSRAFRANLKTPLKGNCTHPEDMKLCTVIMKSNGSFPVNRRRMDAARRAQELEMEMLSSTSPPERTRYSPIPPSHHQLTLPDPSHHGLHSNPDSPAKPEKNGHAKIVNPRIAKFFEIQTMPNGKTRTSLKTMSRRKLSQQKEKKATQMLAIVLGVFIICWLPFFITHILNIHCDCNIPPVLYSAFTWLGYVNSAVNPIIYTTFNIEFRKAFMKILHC
READOUT: inhibition (%)
The answer is to be given in %; state only the numeric part.

# lookup: inhibition of Cl.O=C1C2C3C=CC(C4C=CC43)C2C(=O)N1CCCCN1CCN(c2cccc(C(F)(F)F)c2)CC1 (stereo not drawn) 96

# lookup: inhibition of Cl.O=C1C2C3C=CC(C4C=CC43)C2C(=O)N1CCCCN1CCN(c2ncccn2)CC1 (stereo not drawn) 59

# lookup: inhibition of Cl.O=C1C2C3CCCC(CC3)C2C(=O)N1CCCCN1CCN(c2cccc(C(F)(F)F)c2)CC1 (stereo not drawn) 97

# lookup: inhibition of O=C1C2C3CCC(C4CC43)C2C(=O)N1CCCCN1CCN(c2cncc(Cl)n2)CC1 (stereo not drawn) 49

# lookup: inhibition of O=C1C2C3C=CC(C4CCC34)C2C(=O)N1CCCCN1CCN(c2cccc(Cl)c2)CC1 (stereo not drawn) 87

# lookup: inhibition of Cl.O=C1C2C3C=CC(C4CCC34)C2C(=O)N1CCCCN1CCN(c2cnccn2)CC1 (stereo not drawn) 48

# lookup: inhibition of O=C1C2C3C=CC(C3)C2C(=O)N1CCCCN1CCN(c2nccnc2Cl)CC1 (stereo not drawn) 48

# lookup: inhibition of Cl.O=C1C2C3C=CC(C4CC34)C2C(=O)N1CCCCc1ccncc1 (stereo not drawn) 0

# lookup: inhibition of Cl.O=C1N(CCCCN2CCN(c3ncccn3)CC2)C(=O)C23C4CCC(C4)C12C1CCC3C1 (stereo not drawn) 63

# lookup: inhibition of O=C1C2C3C=CC(C4C=CC43)C2C(=O)N1CCCCN1CCN(c2cncc(Cl)n2)CC1 (stereo not drawn) 50

# lookup: inhibition of O=C1C2C3C=CC(C4CC34)C2C(=O)N1CCCCN1CCN(c2cccc(Cl)c2)CC1 (stereo not drawn) 100

# lookup: inhibition of Cl.O=C1C2C3C=CC(C4CCC34)C2C(=O)N1CCCCN1CCN(c2ccc(C(F)(F)F)cn2)CC1 (stereo not drawn) 65

# lookup: inhibition of O=C1C2C3C=CC(C4CC34)C2C(=O)N1CCCCC1CCN(c2cncc(Cl)n2)CC1 (stereo not drawn) 21

# lookup: inhibition of O=C1C2C3CCCC(CC3)C2C(=O)N1CCCCN1CCN(c2cncc(Cl)n2)CC1 (stereo not drawn) 49

# lookup: inhibition of Cl.O=C1C2C3C=CC(CCC3)C2C(=O)N1CCCCc1ccncc1 (stereo not drawn) 6

# lookup: inhibition of O=C1C2C3CS(=O)(=O)CC3C2C(=O)N1CCCCN1CCN(c2cncc(Cl)n2)CC1 (stereo not drawn) 0

# lookup: inhibition of Cl.O=C1C2C3CCCC(CC3)C2C(=O)N1CCCCN1CCN(c2ccc(C(F)(F)F)cn2)CC1 (stereo not drawn) 33

# lookup: inhibition of O=C1C2C3C=CC(C3)C2C(=O)N1CCCCN1CCN(c2cncc(Cl)n2)CC1 (stereo not drawn) 1
